- Tested on: SK-MEL-5 melanoma
- assayRemarks: NCI tumour cell line growth inhibition, 48 h
Listed next: entries and their corresponding TGI.

Completed entries (count: 3):
- compound: "N#Cc1c(NC(=O)c2ccccc2F)sc2c1CCCC2"
  measValue: "> 25 µM"
- compound: "CCC(=O)C(CCN1CCC(N2C(=O)C(CCC#N)c3ccccc32)CC1)(c1ccccc1)c1ccccc1 (stereo unspecified)"
  measValue: "22.1 µM"
- compound: "O=C1CSC(c2ccccc2O)N1c1ccc(Oc2ccc(Cl)cc2)c(Cl)c1 (stereo unspecified)"
  measValue: "33.8 µM"

As a next step, examine the compound that follows.
Q: Give TGI for the following compound: C=CC[N+]1(CC)CCN=C1CCCCCCCCCCCCCCCCC (stereo unspecified)
Ans: 1.3 µM

* * *

- System: NCI-H23 lung
- assayRemarks: NCI tumour cell line growth inhibition, 48 h
observable: GI50

- smilesRepr: "CSC1=Nc2c(c(C)c(-c3ccccc3)n2COC(CO)CO)C2=NC(=O)CN12"
  tgt: "NCI-H23 lung"
  measValue: "> 100000 nM"
- smilesRepr: "CCn1ccnc1C(=O)/C=C/c1ccc(CC(=O)Nc2ccc(F)cc2)cc1"
  tgt: "NCI-H23 lung"
  measValue: "4250 nM"
- smilesRepr: "C=C1C(=O)O[C@H]2[C@H]1CC/C(COC(=O)NCc1c[nH]c3ccc(F)cc13)=C\\CC[C@@]1(C)O[C@@H]21"
  tgt: "NCI-H23 lung"
  measValue: "1830 nM"

Q: Give GI50 for the following molecule: Cc1ccc(-n2c(-c3cc4c([nH]c5ccccc54)c(-c4cccc(O)c4)n3)n[nH]c2=S)cc1
Ans: 1670 nM

Q: Give GI50 for the following molecule: COc1ccc(/C=N\Nc2nc(SCC(C)C)nc(-c3ccc(OC)cc3)c2C#N)cc1
Ans: 12200 nM

Q: Give GI50 for the following molecule: COc1ccc(S(=O)(=O)N2CCNCC2)cc1OC
Ans: > 100000 nM

Q: Give GI50 for the following molecule: O=C1/C(=C/c2ccccc2[N+](=O)[O-])COc2ccc(O)cc21
Ans: 1590 nM

Q: Give GI50 for the following molecule: Nc1nc(-c2ccc(Cl)cc2)nc2c1sc(=S)n2-c1ccccc1
Ans: 4050 nM

Q: Give GI50 for the following molecule: N#Cc1cc2c(cc1Cl)Sc1nnc(Nc3cccc4ccccc34)n1S2(=O)=O
Ans: 1800 nM

* * *

- Test system: UACC-257 melanoma
- assayRemarks: NCI tumour cell line growth inhibition, 48 h
observable: TGI

Completed entries (count: 3):
- compound: "CCCC(=O)OCOC(=O)N(C)N=Nc1ccc(C(=O)OCC)cc1"
  tgt: "UACC-257 melanoma"
  measValue: "> 100 µM"
- compound: "O=C(O)CCCc1ccccc1"
  tgt: "UACC-257 melanoma"
  measValue: "> 1000 µM"
- compound: "COC(=O)CCC(NC(=S)N/N=C(\\C)c1cnccn1)C(=O)OC (centres undefined)"
  tgt: "UACC-257 melanoma"
  measValue: "> 100 µM"

Q: Give TGI for the following compound: COc1ccccc1C1c2cc3c(cc2OC(N2CCCC2)C1C)OCO3 (centres undefined)
Ans: 48.1 µM

Q: Give TGI for the following compound: C[C@@H](NC(=O)c1ccc(F)cc1)c1ccc2c(c1)CCN2C(=O)C1CCOCC1
Ans: > 100 µM

Q: Give TGI for the following compound: CCc1ccccc1NC(=O)CC1NC(=O)CS1 (centres undefined)
Ans: > 100 µM

Q: Give TGI for the following compound: C[C@@]1(OC(=O)c2cc([N+](=O)[O-])cc([N+](=O)[O-])c2)C[C@@H]2CCCC[C@@H]21
Ans: > 100 µM

Q: Give TGI for the following compound: O=C(c1cc(Cc2n[nH]c(=O)c3ccccc23)ccc1F)N1CCN(C(=O)C2CC2)CC1
Ans: > 100 µM

Q: Give TGI for the following compound: Cc1cc(O)c2c3c(ccc2c1)C(=O)c1c(O)cccc1C3=O
Ans: > 100 µM

* * *

- Test system: M14 melanoma
- assayRemarks: NCI tumour cell line growth inhibition, 48 h
observable: TGI

Completed entries (count: 6):
- compound: "CC(N)CC(=O)O (configuration not stated)"
  tgt: "M14 melanoma"
  measValue: "> 5000 µM"
- compound: "N#CC1C(N)=NNC12Nc1ccccc1S2 (configuration not stated)"
  tgt: "M14 melanoma"
  measValue: "40.5 µM"
- compound: "Cc1cc(O)c2c3c(ccc2c1)C(=O)c1c(O)cccc1C3=O"
  tgt: "M14 melanoma"
  measValue: "> 26.2 µM"
- compound: "COc1ccc2nc3cc(Cl)ccc3c(N3CCN(c4ccnc(N5CCN(C)CC5)n4)CC3)c2c1"
  tgt: "M14 melanoma"
  measValue: "4.06 µM"
- compound: "Cc1cccc(CNc2ncnc3[nH]ncc23)c1"
  tgt: "M14 melanoma"
  measValue: "> 100 µM"
- compound: "O/N=C1/CCCc2nonc21"
  tgt: "M14 melanoma"
  measValue: "> 100 µM"

Q: Give TGI for the following compound: COc1ccc(OC)c(Cc2cnc3nc(N)nc(N)c3c2C)c1
Ans: > 41.9 µM

* * *

- Test system: OVCAR-4 ovarian
- assayRemarks: NCI tumour cell line growth inhibition, 48 h
observable: TGI

Completed entries (count: 8):
- compound: "Nc1[nH]c(=O)[nH]c(=O)c1Cc1cccc(Cl)c1"
  TGI: "> 100 µM"
- compound: "COC1=C2CC(C)CC(OC)C(OC(=O)CCCN)C(C)/C=C(\\C)C(OC(N)=O)C(OC)/C=C\\C=C(/C)C(=O)NC(=CC1=O)C2=O (centres undefined)"
  TGI: "20.4 µM"
- compound: "CC1CCC2C(CN(CC3=C(C(F)(F)F)OC4OC5(C)CCC6C(C)CCC3C46OO5)CC3=C(C(F)(F)F)OC4OC5(C)CCC6C(C)CCC3C46OO5)=C(C(F)(F)F)OC3OC4(C)CCC1C32OO4 (centres undefined)"
  TGI: "33.4 µM"
- compound: "O=C(CO)C1CC2C=CC1C2 (centres undefined)"
  TGI: "> 100 µM"
- compound: "CSc1ccc2c(cc1=O)C(NC(=O)c1ccc(C#N)cc1)CCc1cc(O)c(O)c(O)c1-2 (centres undefined)"
  TGI: "27.2 µM"
- compound: "COc1ccc(-c2[nH]c3ccccc3c2/C=C(\\C#N)S(=O)(=O)c2ccccc2)cc1"
  TGI: "> 31.8 µM"
- compound: "Fc1ccc2nc(-c3nc(-c4ccccc4)n4ccccc34)[nH]c2c1"
  TGI: "6.31 µM"
- compound: "CC(C)CCC[C@@H](C)[C@H]1CC[C@H]2C3=C[C@H](OS(=O)(=O)O)[C@@]4(O)C[C@@H](O)CC[C@]4(C)[C@@]3(O)CC[C@]12C"
  TGI: "> 100 µM"

Q: Give TGI for the following compound: CCN(Cc1ccc(F)cc1)c1ccc(CO)c(C(F)(F)F)c1
Ans: 12.8 µM

Q: Give TGI for the following compound: CC(C)OC(=O)C1Cc2c([nH]c3ccccc23)C(c2ccccc2)N1 (centres undefined)
Ans: > 100 µM

Q: Give TGI for the following compound: CSC1=Nc2c(c(C)c(-c3ccccc3)n2COC(CO)CO)C2=NC(=O)CN12
Ans: > 100 µM

Q: Give TGI for the following compound: Cc1ccc(S(=O)(=O)N2CC(CCN)c3ccccc32)cc1 (centres undefined)
Ans: > 100 µM

Q: Give TGI for the following compound: CC(=O)[CH-]C(C)=O.CC(=O)[CH-]C(C)=O.CC(=O)[CH-]C(C)=O.[Ga+3]
Ans: > 100 µM

Q: Give TGI for the following compound: BrCc1ccc(CBr)c2c1-c1c(CBr)ccc3ccc(CBr)c-2c13
Ans: > 100 µM

* * *

Listed next: entries and their corresponding TGI.
- Test system: OVCAR-8 ovarian
- assayRemarks: NCI tumour cell line growth inhibition, 48 h

- compound: "Cc1ccc(S(=O)(=O)NC(=O)OC23COCN2COC3)cc1"
  tgt: "OVCAR-8 ovarian"
  measValue: "> 100 µM"
- compound: "C=CCN(CC=C)C(=O)[C@H](CC)[C@@H]1CC[C@@H](C)[C@@H]([C@H](C)[C@@H](O)[C@@H](C)C(=O)[C@H](CC)C2O[C@]3(C=C[C@@H](O)[C@]4(CC[C@@](C)([C@H]5CC[C@](O)(CC)[C@H](C)O5)O4)O3)[C@H](C)C[C@@H]2C)O1 (stereo not given in full)"
  tgt: "OVCAR-8 ovarian"
  measValue: "76.4 µM"
- compound: "O=c1n(-c2ccccc2)c(=O)n2c(-c3ccccc3)c(-c3ccccc3)n12"
  tgt: "OVCAR-8 ovarian"
  measValue: "> 100 µM"
- compound: "CC1CCN(CCOc2ccc(CNc3ccc4nc(CCC5CCCCC5)[nH]c4c3)cc2)CC1"
  tgt: "OVCAR-8 ovarian"
  measValue: "4.24 µM"
- compound: "Cc1cccc(CNc2ncnc3[nH]ncc23)c1"
  tgt: "OVCAR-8 ovarian"
  measValue: "> 100 µM"

Q: Give TGI for the following compound: c1ccc2c(-c3csc(-c4c[nH]c5ccccc45)n3)c[nH]c2c1
Ans: > 100 µM

Q: Give TGI for the following compound: O=C(/C=C(\Nc1ccccc1O)c1ccc(Br)cc1)C(Cl)(Cl)Cl
Ans: 27 µM

Q: Give TGI for the following compound: c1ccc(COC2C3COC(O3)C(OCc3ccccc3)C2OCc2ccccc2)cc1 (stereo not given)
Ans: > 100 µM

Q: Give TGI for the following compound: O=[N+]([O-])c1cc(Cc2cc([N+](=O)[O-])c3cccnc3c2O)c(O)c2ncccc12
Ans: > 42.9 µM

Q: Give TGI for the following compound: CSC1=Nc2c(c(C)c(-c3ccccc3)n2COC(CO)CO)C2=NC(=O)CN12
Ans: > 100 µM

Q: Give TGI for the following compound: COc1cc(-c2cc(=O)c3ccccc3[nH]2)cc(OC)c1OC
Ans: > 75 µM

Q: Give TGI for the following compound: CCOC(=O)/C=C\C(C#N)(C#N)N=Cc1ccsc1
Ans: 14.6 µM

Q: Give TGI for the following compound: CCOP(=O)(OCC)C(Cc1ccc(Cl)cc1)NS(=O)(=O)c1ccc(C)cc1 (stereo not given)
Ans: > 100 µM

The reported numbers originate from PubChem BioAssay (NCI).
